B1: Chromodomain-helicase-DNA-binding protein 4, residues 444 to 496; numbered along this chain, Q14839 (parent)
chain: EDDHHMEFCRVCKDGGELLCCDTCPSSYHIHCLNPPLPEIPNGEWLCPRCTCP

Variants of: B1
Assay: abundance fitness (aPCA) (normalised: wild type 0, dead -1); higher = more abundant; growth selection in yeast, the domain comes from the species named
Conditions: Homo sapiens
So basically: abundance fitness at -0.2 or higher? That is satisfied. Lower than -0.2? That is not satisfied.

Check this variant for abundance fitness at or above -0.2: D3T
satisfied

Check this variant for abundance fitness at or above -0.2: L18W
not satisfied

Check this variant for abundance fitness at or above -0.2: E1F
not satisfied

Check this variant for abundance fitness at or above -0.2: G15E
satisfied

Check this variant for abundance fitness at or above -0.2: L33W
not satisfied

Check this variant for abundance fitness at or above -0.2: C24G
not satisfied

Check this variant for abundance fitness at or above -0.2: D3M
satisfied

Check this variant for abundance fitness at or above -0.2: H29Y
not satisfied

Check this variant for abundance fitness at or above -0.2: C52N
satisfied

Check this variant for abundance fitness at or above -0.2: P38Q
satisfied

Check this variant for abundance fitness at or above -0.2: L33P
not satisfied

Check this variant for abundance fitness at or above -0.2: K13R
satisfied

Check this variant for abundance fitness at or above -0.2: L46E
satisfied

Check this variant for abundance fitness at or above -0.2: R10D
satisfied

Check this variant for abundance fitness at or above -0.2: C12F
not satisfied

Check this variant for abundance fitness at or above -0.2: E44A
satisfied
